Entry source: ChEMBL document CHEMBL1138526

biological target: Protein deacetylase HDAC6 (Homo sapiens); experiment: Inhibition of human recombinant HDAC6 by fluorimetry
Sequence (Q9UBN7 whole entry): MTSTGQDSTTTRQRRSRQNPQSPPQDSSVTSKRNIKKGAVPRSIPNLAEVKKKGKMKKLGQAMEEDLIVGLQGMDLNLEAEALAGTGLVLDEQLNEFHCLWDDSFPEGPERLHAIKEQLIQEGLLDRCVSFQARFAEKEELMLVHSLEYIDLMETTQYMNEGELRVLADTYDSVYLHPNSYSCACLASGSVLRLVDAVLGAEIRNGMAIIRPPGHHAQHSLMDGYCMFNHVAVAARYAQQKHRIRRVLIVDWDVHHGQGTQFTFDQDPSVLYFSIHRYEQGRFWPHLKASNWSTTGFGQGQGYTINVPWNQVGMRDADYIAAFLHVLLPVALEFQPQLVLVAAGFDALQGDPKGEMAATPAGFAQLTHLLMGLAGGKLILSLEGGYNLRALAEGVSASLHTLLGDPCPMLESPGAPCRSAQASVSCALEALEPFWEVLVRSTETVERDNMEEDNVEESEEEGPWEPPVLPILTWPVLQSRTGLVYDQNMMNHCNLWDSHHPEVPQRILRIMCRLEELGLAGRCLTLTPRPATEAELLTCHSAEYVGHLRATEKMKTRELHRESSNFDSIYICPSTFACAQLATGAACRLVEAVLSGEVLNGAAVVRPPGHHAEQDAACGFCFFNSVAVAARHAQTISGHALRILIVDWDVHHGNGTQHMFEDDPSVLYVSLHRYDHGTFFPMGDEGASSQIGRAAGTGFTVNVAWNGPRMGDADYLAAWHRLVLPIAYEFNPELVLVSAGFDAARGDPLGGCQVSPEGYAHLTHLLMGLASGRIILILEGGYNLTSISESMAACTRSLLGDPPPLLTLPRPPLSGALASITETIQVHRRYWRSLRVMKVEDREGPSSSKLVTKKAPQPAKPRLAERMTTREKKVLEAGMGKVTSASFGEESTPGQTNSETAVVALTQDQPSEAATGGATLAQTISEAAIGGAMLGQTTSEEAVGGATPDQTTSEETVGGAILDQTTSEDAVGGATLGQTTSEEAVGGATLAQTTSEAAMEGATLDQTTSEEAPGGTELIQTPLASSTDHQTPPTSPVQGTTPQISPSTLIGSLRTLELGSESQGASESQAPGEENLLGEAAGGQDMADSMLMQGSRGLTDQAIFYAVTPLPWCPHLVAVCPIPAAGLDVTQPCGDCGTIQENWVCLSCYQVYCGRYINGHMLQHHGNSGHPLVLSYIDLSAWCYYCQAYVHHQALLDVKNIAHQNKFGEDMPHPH
Reported Endpoint: pIC50
On this scale, pIC50 is minus log10 of a concentration expressed in M (mol/L).

// solved cases for pIC50 follow
| Molecule | Experimental System | pIC50 |
| --- | --- | --- |
| O=C(N[C@@H](CCCCCB(O)O)C(=O)Nc1cccc(-c2ccccc2)c1)c1cccnc1 | Protein deacetylase HDAC6 (Homo sapiens) | 6.49 |
| O=C(N[C@H](CCCCCB(O)O)C(=O)Nc1cccc(-c2ccccc2)c1)c1cncs1 | Protein deacetylase HDAC6 (Homo sapiens) | 5.25 |
| O=C(N[C@@H](CCCCCB(O)O)C(=O)Nc1cccc(-c2ccccc2)c1)c1ccccc1 | Protein deacetylase HDAC6 (Homo sapiens) | 5.96 |
| O=C(N[C@@H](CCCCCB(O)O)C(=O)Nc1cccc(-c2ccccc2)c1)c1cncs1 | Protein deacetylase HDAC6 (Homo sapiens) | 6.96 |
| O=C(N[C@H](CCCCCB(O)O)C(=O)Nc1cccc(-c2ccccc2)c1)c1ccccc1 | Protein deacetylase HDAC6 (Homo sapiens) | 4.62 |

Name the recorded pIC50 for O=C(N[C@H](CCCCCB(O)O)C(=O)Nc1cccc(-c2ccccc2)c1)c1cccnc1 . 4.85

###

biological target: Histone deacetylase; test: Inhibition of HDAC in human HeLa cell nuclear extracts by fluorimetry; type: cell-based
# if measured IC50 < 2 µM: criterion met  # else: criterion not met

Field: example entries. Status: answers known.
| Compound | Group |
| --- | --- |
| O=C(CCCCCCB(O)O)Nc1cccc(Oc2ccccc2)c1 | criterion not met |
| O=C(N[C@@H](CCCCCB(O)O)C(=O)Nc1cccc(-c2ccccc2)c1)c1ccccc1 | criterion met |
| O=C(NC(CCCCCB(O)O)C(=O)Nc1cccc(-c2ccccc2)c1)c1cncs1 (stereo not drawn) | criterion met |
| O=C(N[C@H](CCCCCB(O)O)C(=O)Nc1cccc(-c2ccccc2)c1)c1cccnc1 | criterion not met |
| O=C(N[C@@H](CCCCCB(O)O)C(=O)Nc1cccc(-c2ccccc2)c1)c1cccnc1 | criterion met |
| CC(C)(C)OC(=O)NC(CCCCCB(O)O)C(=O)Nc1cccc(Oc2ccccc2)c1 (stereo not drawn) | criterion not met |
| O=C(Nc1cccnc1)C(CCCCCB(O)O)C(=O)Nc1cccc(-c2ccccc2)c1 (stereo not drawn) | criterion not met |
| O=C(CCCCCCB(O)O)Nc1ccccc1 | criterion not met |

Given O=C(Nc1ccccc1)C(CCCCCB(O)O)C(=O)Nc1cccc(-c2ccccc2)c1 (stereo not drawn) , is recorded IC50 strictly lower than 2 µM? criterion not met

Given CN(C)c1ccc(C(=O)NC(CCCCCB(O)O)C(=O)Nc2cccc(-c3ccccc3)c2)cc1 (stereo not drawn) , is recorded IC50 strictly lower than 2 µM? criterion not met

Given O=C(NC(CCCCCB(O)O)C(=O)Nc1cccc(-c2ccccc2)c1)c1ccc2ccccc2n1 (stereo not drawn) , is recorded IC50 strictly lower than 2 µM? criterion not met

Given O=C(NC(CCCCCB(O)O)C(=O)Nc1cccc(-c2ccccc2)c1)c1cc2ccccc2[nH]1 (stereo not drawn) , is recorded IC50 strictly lower than 2 µM? criterion not met

Given O=C(NC(CCCCCB(O)O)C(=O)Nc1cccc(-c2ccccc2)c1)c1cscn1 (stereo not drawn) , is recorded IC50 strictly lower than 2 µM? criterion not met

Given O=C(N[C@@H](CCCCCB(O)O)C(=O)Nc1cccc(-c2ccccc2)c1)c1cncs1 , is recorded IC50 strictly lower than 2 µM? criterion met

Given CC(C)(C)OC(=O)NC(CCCCCB(O)O)C(=O)Nc1ccccc1 (stereo not drawn) , is recorded IC50 strictly lower than 2 µM? criterion not met

Given O=C(CCCCCCB(O)O)Nc1nc2ccccc2s1 , is recorded IC50 strictly lower than 2 µM? criterion not met

Given O=C(N[C@H](CCCCCB(O)O)C(=O)Nc1cccc(-c2ccccc2)c1)c1cncs1 , is recorded IC50 strictly lower than 2 µM? criterion not met

###

target: Histone deacetylase; assay: Inhibition of HDAC in human HeLa cell nuclear extracts by fluorimetry; format: cell-based
Reported Endpoint: log10 IC50 (log10 of the value in µM)
Annotation: log10 of IC50, µM basis.

// solved cases for log10 IC50 follow
| Compound | Experimental Result |
| --- | --- |
| CC(C)(C)OC(=O)NC(CCCCCB(O)O)C(=O)Nc1cccc(-c2ccccc2)c1 (stereo not given) | 1.08 |
| O=C(NC(CCCCCB(O)O)C(=O)Nc1cccc(-c2ccccc2)c1)c1ccccc1 (stereo not given) | 0.30 |
| CC(C)(C)OC(=O)NC(CCCCCB(O)O)C(=O)Nc1cnc2ccccc2c1 (stereo not given) | 1.20 |

Query the reported log10 IC50 for Histone deacetylase; item: O=C(N[C@H](CCCCCB(O)O)C(=O)Nc1cccc(-c2ccccc2)c1)c1ccccc1 1.23

Query the reported log10 IC50 for Histone deacetylase; item: CC(C)(C)OC(=O)NC(CCCCCB(O)O)C(=O)Nc1nc2ccccc2s1 (stereo not given) 1.36

Query the reported log10 IC50 for Histone deacetylase; item: O=C(NC(CCCCCB(O)O)C(=O)Nc1cccc(-c2ccccc2)c1)OCc1ccccc1 (stereo not given) 0.62

###

molecular target: Histone deacetylase (Homo sapiens) (UniProt Q13547+O15379+Q9UBN7+Q92769+Q9UQL6+Q8WUI4+Q9BY41+Q96DB2+P56524+Q9UKV0+Q969S8); test: Inhibition of HDAC in human HeLa cell nuclear extracts at 100 uM by fluorimetry; type: cell-free
Reported Endpoint: inhibition
Give me the value, and tack the unit on after it.

// solved cases for inhibition follow
| Compound | inhibition |
| --- | --- |
| CC(C)(C)OC(=O)NC(CCCCCB(O)O)C(=O)Nc1cccc(-c2ccccc2)c1 (configuration not stated) | 85% |
| CC(C)(C)OC(=O)NC(CCCCCB(O)O)C(=O)Nc1ccc(Oc2ccccc2)cc1 (configuration not stated) | 15% |
| O=C(CCCCCCB(O)O)Nc1cnc2ccccc2c1 | 32% |
| CC(C)(C)OC(=O)NC(CCCCCB(O)O)C(=O)Nc1nc2ccccc2s1 (configuration not stated) | 78% |
| CC(C)(C)OC(=O)NC(CCCCCB(O)O)C(=O)Nc1cccc(Oc2ccccc2)c1 (configuration not stated) | 38% |
| CC(C)(C)OC(=O)NC(CCCCCB(O)O)C(=O)Nc1ccccc1 (configuration not stated) | 42% |
| O=C(CCCCCCB(O)O)Nc1cccc(Oc2ccccc2)c1 | 1.8% |
| O=C(CCCCCCB(O)O)Nc1ccccc1 | 37% |
| O=C(CCCCCCB(O)O)Nc1cccc(-c2ccccc2)c1 | 40% |
| O=C(CCCCCCB(O)O)Nc1ccc(Oc2ccccc2)cc1 | 2.2% |

Name the recorded inhibition for CC(C)(C)OC(=O)NC(CCCCCB(O)O)C(=O)Nc1cnc2ccccc2c1 (configuration not stated) . 86%

Name the recorded inhibition for O=C(CCCCCCB(O)O)Nc1nc2ccccc2s1 . 5.1%

###

target: UniProtKB Q92769; assay: Inhibition of human recombinant HDAC2 by fluorimetry
Sequence (Q92769 whole entry): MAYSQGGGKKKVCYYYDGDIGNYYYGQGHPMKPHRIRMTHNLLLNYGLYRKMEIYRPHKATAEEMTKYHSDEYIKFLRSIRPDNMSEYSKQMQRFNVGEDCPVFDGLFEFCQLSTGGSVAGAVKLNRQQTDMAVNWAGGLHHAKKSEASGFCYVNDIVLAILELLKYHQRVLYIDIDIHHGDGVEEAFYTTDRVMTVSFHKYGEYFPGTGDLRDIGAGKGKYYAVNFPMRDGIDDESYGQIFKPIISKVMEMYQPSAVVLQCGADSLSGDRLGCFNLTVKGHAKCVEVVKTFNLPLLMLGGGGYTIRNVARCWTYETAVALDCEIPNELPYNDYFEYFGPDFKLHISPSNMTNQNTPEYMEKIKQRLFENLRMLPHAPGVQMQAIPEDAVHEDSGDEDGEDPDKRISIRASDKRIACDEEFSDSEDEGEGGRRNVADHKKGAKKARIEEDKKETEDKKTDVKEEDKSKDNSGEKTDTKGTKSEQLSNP
Reported Endpoint: IC50 (µM)
Express the result in µM but write the number alone.

| Molecule | Scale Unit | IC50 |
| --- | --- | --- |
| O=C(N[C@@H](CCCCCB(O)O)C(=O)Nc1cccc(-c2ccccc2)c1)c1cccnc1 | µM | 0.83 |

Name the recorded IC50 for O=C(N[C@H](CCCCCB(O)O)C(=O)Nc1cccc(-c2ccccc2)c1)c1cccnc1 . 99

Name the recorded IC50 for O=C(N[C@@H](CCCCCB(O)O)C(=O)Nc1cccc(-c2ccccc2)c1)c1ccccc1 . 3.6

Name the recorded IC50 for O=C(N[C@@H](CCCCCB(O)O)C(=O)Nc1cccc(-c2ccccc2)c1)c1cncs1 . 0.53

###

molecular target: Histone deacetylase 1 (Homo sapiens, UniProt Q13547); assay: Inhibition of human recombinant HDAC1 by fluorimetry
Sequence (Q13547 whole entry): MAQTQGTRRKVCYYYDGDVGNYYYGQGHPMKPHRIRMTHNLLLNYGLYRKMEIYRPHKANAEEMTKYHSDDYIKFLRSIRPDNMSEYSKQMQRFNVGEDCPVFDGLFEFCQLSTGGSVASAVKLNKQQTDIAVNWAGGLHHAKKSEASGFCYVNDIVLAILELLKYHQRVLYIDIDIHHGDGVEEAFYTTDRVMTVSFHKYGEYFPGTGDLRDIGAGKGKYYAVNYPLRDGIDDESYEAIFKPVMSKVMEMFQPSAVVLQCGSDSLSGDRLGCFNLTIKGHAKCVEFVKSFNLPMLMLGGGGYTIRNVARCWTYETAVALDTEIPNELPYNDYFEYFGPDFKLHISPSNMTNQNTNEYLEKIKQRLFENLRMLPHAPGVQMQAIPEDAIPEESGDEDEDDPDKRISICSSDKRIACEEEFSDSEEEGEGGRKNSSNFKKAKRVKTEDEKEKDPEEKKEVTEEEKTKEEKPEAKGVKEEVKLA
pIC50: −log10 of the molar value.
Listed below: pIC50 values for each entry.

// solved cases for pIC50 follow
| Molecule | pIC50 |
| --- | --- |
| O=C(N[C@@H](CCCCCB(O)O)C(=O)Nc1cccc(-c2ccccc2)c1)c1cccnc1 | 5.55 |
| O=C(N[C@@H](CCCCCB(O)O)C(=O)Nc1cccc(-c2ccccc2)c1)c1ccccc1 | < 5.00 |
| O=C(N[C@H](CCCCCB(O)O)C(=O)Nc1cccc(-c2ccccc2)c1)c1cccnc1 | < 4.00 |

Query the reported pIC50 for Histone deacetylase 1 (Homo sapiens, UniProt Q13547); item: O=C(N[C@H](CCCCCB(O)O)C(=O)Nc1cccc(-c2ccccc2)c1)c1cncs1 < 4.00

Query the reported pIC50 for Histone deacetylase 1 (Homo sapiens, UniProt Q13547); item: O=C(N[C@@H](CCCCCB(O)O)C(=O)Nc1cccc(-c2ccccc2)c1)c1cncs1 5.66

Query the reported pIC50 for Histone deacetylase 1 (Homo sapiens, UniProt Q13547); item: O=C(N[C@H](CCCCCB(O)O)C(=O)Nc1cccc(-c2ccccc2)c1)c1ccccc1 < 4.00
